This document collects log10 Ki values reported for porcine D1R (Sus scrofa, UniProt P50130).
Please be aware that the numbers have been log10-transformed from Ki in µM.

Bench note, porcine D1R (Sus scrofa, UniProt P50130): "COc1ccccc1N1CCN(CCCCc2cn(-c3ccc(CNS(=O)(=O)c4cccc5c(N(C)C)cccc45)cc3)nn2)CC1" , log10 Ki reads -0.74

Record "CCCN(CCCCc1cn(-c2ccc(C(=O)NCCCNS(=O)(=O)c3cccc4c(N(C)C)cccc34)cc2)nn1)C1Cc2ccccc2C1" ; system porcine D1R (Sus scrofa, UniProt P50130); log10 Ki = 0.04

----------
- experimental_target: human D3R (Homo sapiens)
- Sequence (P35462 whole entry): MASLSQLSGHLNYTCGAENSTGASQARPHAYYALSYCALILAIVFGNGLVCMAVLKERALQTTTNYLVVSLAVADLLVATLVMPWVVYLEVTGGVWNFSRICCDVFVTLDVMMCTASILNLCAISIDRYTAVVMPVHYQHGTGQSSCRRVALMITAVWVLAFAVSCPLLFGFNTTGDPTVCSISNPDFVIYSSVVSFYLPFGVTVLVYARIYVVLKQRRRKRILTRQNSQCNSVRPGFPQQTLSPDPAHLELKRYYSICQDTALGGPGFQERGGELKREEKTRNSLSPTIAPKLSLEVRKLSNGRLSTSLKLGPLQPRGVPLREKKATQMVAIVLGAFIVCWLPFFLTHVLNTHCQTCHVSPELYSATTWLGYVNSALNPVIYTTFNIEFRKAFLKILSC
- experiment_notes: Radioligand competition, [3H]spiperone, CHO cell membranes
As shown below, each of these molecules has a reported pKi value.
FYI, pKi means -log10 of a concentration in mol per litre.

molecule	experimental_target	pKi
CCCN(CCCCc1cn(-c2ccc(CNS(=O)(=O)c3cccc4c(N(C)C)cccc34)cc2)nn1)C1Cc2ccccc2C1 [4a]	human D3R (Homo sapiens)	9.54
CN(C)c1cccc2c(S(=O)(=O)NCCCNC(=O)c3ccc(-n4cc(CCCCN5CCN(c6cccc(Cl)c6Cl)CC5)nn4)cc3)cccc12 [8b]	human D3R (Homo sapiens)	8.72
CCCN(CCCCc1cn(-c2ccc(CNC(=O)c3ccc(-c4c5ccc(=NCC(F)(F)F)cc-5oc5cc(NCC(F)(F)F)ccc45)c(C(=O)O)c3)cc2)nn1)C1Cc2ccccc2C1 [10a]	human D3R (Homo sapiens)	9.01

// pKi lookup, molecule = COc1ccccc1N1CCN(CCCCc2cn(-c3ccc(CNS(=O)(=O)c4cccc5c(N(C)C)cccc45)cc3)nn2)CC1 [4c] , result: 8.19

----------
- experimental_target: human D3R (Homo sapiens)
- experiment_notes: Radioligand competition, [3H]spiperone, CHO cell membranes
property_name: Ki (nM)
Express your answer in nM, writing the number without its unit.

                                   compound       experimental_target  value_reported
0  CCCN(CCCCc1cn(-c2ccc(C#N)cc2)nn1)C1Cc2ccccc2C1 [2a]  human D3R (Homo sapiens)            0.41
1  CN(C)c1cccc2c(S(=O)(=O)NCc3ccc(-n4cc(CCCCN5CCN(c6cc(C(F)(F)F)nc(C(C)(C)C)n6)CC5)nn4)cc3)cccc12 [4d]  human D3R (Homo sapiens)              11
2  CCCN(CCCCc1cn(-c2ccc(C(=O)NCCCNS(=O)(=O)c3cccc4c(N(C)C)cccc34)cc2)nn1)C1Cc2ccccc2C1 [8a]  human D3R (Homo sapiens)            0.32
3  CN(C)c1cccc2c(S(=O)(=O)NCc3ccc(-n4cc(CCCCN5CCN(c6cccc(Cl)c6Cl)CC5)nn4)cc3)cccc12 [4b]  human D3R (Homo sapiens)             1.9
4  CCCN(CCCCc1cn(-c2ccc(C(=O)NCCCN)cc2)nn1)C1Cc2ccccc2C1 [7a]  human D3R (Homo sapiens)            0.26

Notebook: CC(C)(C)c1nc(N2CCN(CCCCc3cn(-c4ccc(C#N)cc4)nn3)CC2)cc(C(F)(F)F)n1 [2d] , Ki read as 9.5

Data point: N#Cc1ccc(-n2cc(CCCCN3CCN(c4cccc(Cl)c4Cl)CC3)nn2)cc1 [2b] ; Ki = 1

Noted for COc1ccccc1N1CCN(CCCCc2cn(-c3ccc(C#N)cc3)nn2)CC1 [2c] : its Ki reads 13
